Where these numbers come from: patent US20220064286A1

target: cynomolgus monkey (cyno) TIGIT protein (cynomolgus monkey, UniProt A0A7N9I9V4 89-209); assay: SPR, captured mAb
Sequence (A0A7N9I9V4 entry or part of it): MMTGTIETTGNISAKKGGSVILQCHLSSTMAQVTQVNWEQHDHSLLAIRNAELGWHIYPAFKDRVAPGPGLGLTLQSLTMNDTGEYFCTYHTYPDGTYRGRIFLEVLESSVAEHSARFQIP
Tick satisfied if kon is 700000 M⁻¹ s⁻¹ or greater. Tick not satisfied if kon is less than 700000 M⁻¹ s⁻¹.

Below are worked cases with known answers.
h6B2.L1H1 (antibody, V domains shown, Humanized; FR/HVR pieces in order; also called h1.6B2.L1H1) VH: EVTLKESGPALVKPTQTLTLTCTFSGFSLSTYGMGVSWIRQPPGKALEWLASIWWNGNTYYNPSLKSRLTVTKDASKNQAVLTMTNMDPVDTATYYCAHTGGAVITWFAYWGQGTLVTVSS VL: DIQMTQSPSSLSASVGDRVTITCKASQSVGKNIAWYQQKPGKSPKLLIYYASNRYTGVPSRFSGSGSGTDFTFTISSLQPEDIATYYCQHIYNSPYPFGQGTKVEIK : satisfied
h7E7.L2H1 (antibody, V domains shown, VL: I58V against h7E7.L1H1; FR/HVR pieces) VH: EVQLVQSGAEVKKPGASVKVSCKASGYTFTEYSIYWVRQAPGQRLEIIGRIDPKNGRTYYVDKFKNRATLTADTSASTAYMELSSLRSEDTAVYFCTRIYGFYFDFWGQGTLVTVSS VL: DIQLTQSPSFLSASVGDRVTITCKGSQNVNKYLVWYQQKPGKAPKLLIYNTDNLQSGVPSRFSGSGSGTEYTLTISSLQPEDFATYFCYQYNNGFTFGQGTKVEIK : not satisfied

-- ask Does the binder h15C8.L3H1 (antibody, V domains shown, VL: Y71F against h15C8.L1H1; FR/HVR pieces) VH: EVQLVQSGAEVKKPGASVKVSCKASGYTFTEHSIYWLRQAPGQRLEIIGRIDPKNGRTYFVDKFKNRATLTTDTSASTAYMELSSLRSEDTAVYFCARIDGFYFDFWGQGTLVTVSS VL: DIQLTQSPSFLSASVGDRVTITCKGSQNVNKYLVWYQQKPGKAPKLLIYSTDNLQSGIPSRFSGSGSGTEFTLTISSLQPEDFATYFCYQYNNGFTFGQGTKVEIK have recorded kon that is 700000 M⁻¹ s⁻¹ or more?
-- reply not satisfied

-- ask Does the binder h7E7.L1H8 (antibody, V domains shown, VH: T93A against h7E7.L1H1; FR/HVR pieces) VH: EVQLVQSGAEVKKPGASVKVSCKASGYTFTEYSIYWVRQAPGQRLEIIGRIDPKNGRTYYVDKFKNRATLTADTSASTAYMELSSLRSEDTAVYFCARIYGFYFDFWGQGTLVTVSS VL: DIQLTQSPSFLSASVGDRVTITCKGSQNVNKYLVWYQQKPGKAPKLLIYNTDNLQSGIPSRFSGSGSGTEYTLTISSLQPEDFATYFCYQYNNGFTFGQGTKVEIK have recorded kon that is 700000 M⁻¹ s⁻¹ or more?
-- reply satisfied

-- ask Does the binder h15C8.L1H6 (antibody, V domains shown, VH: L69I (printed L691) against h15C8.L1H1; FR/HVR pieces) VH: EVQLVQSGAEVKKPGASVKVSCKASGYTFTEHSIYWLRQAPGQRLEIIGRIDPKNGRTYFVDKFKNRATITTDTSASTAYMELSSLRSEDTAVYFCARIDGFYFDFWGQGTLVTVSS VL: DIQLTQSPSFLSASVGDRVTITCKGSQNVNKYLVWYQQKPGKAPKLLIYSTDNLQSGIPSRFSGSGSGTEYTLTISSLQPEDFATYFCYQYNNGFTFGQGTKVEIK have recorded kon that is 700000 M⁻¹ s⁻¹ or more?
-- reply not satisfied
